Quick reference for TGI among some molecules
- Test system: OVCAR-8 ovarian
- assay-procedure: NCI tumour cell line growth inhibition, 48 h
measurement-type: TGI

molecule	recorded-measurement
Cc1ccc(C(=O)N(C2CCCCC2)C2CCCCC2)cc1N=NN(C)C	27.5 µM
CCOc1cc2ncc(C#N)c(Nc3ccc(OCc4cccc(F)c4)c(Cl)c3)c2cc1NC(=O)CC1CCSS1 (stereo unspecified)	> 25 µM
COc1ccc(C2=C(OC(=O)N(C)C)c3cccn3-c3cc(C(F)(F)F)ccc3S2)cc1	> 10 µM
COC(=O)/C=C\Sc1ccn(/C=C\C(=O)OC)c(=S)n1	38.1 µM
Cc1cn(C2CC(n3cc(Cn4cc(F)c(=O)[nH]c4=O)nn3)C(CO)O2)c(=O)[nH]c1=O (stereo unspecified)	> 100 µM
CCOc1ccccc1NC(=O)C(=O)CC(=O)c1c(C)n([O-])c2ccccc2[n+]1=O	> 100 µM
COc1cc2c3cc1Oc1c(O)c(OC)cc4c1[C@H](Cc1ccc(cc1)Oc1cc(ccc1O)C[C@H]3N(C)CC2)N(C)CC4	37.3 µM
CN(C)c1ccc(/C=N/Nc2nc3ccccc3c(=O)n2-c2ccccc2)cc1	> 100 µM
CC(=O)c1ccc(N=Nc2ccc3nonc3c2N)cc1	> 100 µM
Cc1ccc(C(=O)OC[C@H]2CC[C@@H](n3cc(N(C)C4CCCCC4)c(=O)[nH]c3=O)O2)cc1	> 100 µM
COc1ccc(N=C2CSc3nnc(-c4cc(F)c(Cl)cc4Cl)n3N2)cc1	10.7 µM
CCNC(=O)Nc1cccc(C)n1	> 100 µM
COc1cc(-c2nn(-c3ccc(NC(=O)c4ccc(Cl)c(Cl)c4)cc3)cc2-c2ccncc2)ccc1Cl	> 100 µM
C=C1CC2(OC1=O)C(=O)N(CCCCCCCN1C(=O)C3(CC(=C)C(=O)O3)c3ccccc31)c1ccccc12 (stereo unspecified)	5.05 µM
COc1ccc2c(c1)O[C@@H]1C(O)Oc3cc(OC)c(OC)cc3[C@]1(O)C2=O (stereo partly specified)	> 100 µM
O=P(O)(CCP(=O)(O)c1ccccc1)c1ccccc1	> 100 µM
OC(C1CCC=NN1C(O)(C(F)(F)F)C(F)(F)F)(C(F)(F)F)C(F)(F)F (stereo unspecified)	> 10 µM
COc1ccc2c(c1)OC(c1cccnc1)C(c1ccccc1)C2=O (stereo unspecified)	> 100 µM
N=C1C(c2nc(-c3ccc(Br)cc3)cs2)=C(O)CN1Cc1cccnc1	> 100 µM
CCOC(C[Se]CC(OCC)OCC)OCC	> 100 µM
CCOC(=O)c1ccc(NC(=O)N2CC(C)OC(C)C2)cc1 (stereo unspecified)	> 100 µM

---

- Test system: SK-MEL-5 melanoma
- assay-procedure: NCI tumour cell line growth inhibition, 48 h; in the data active means GI50 below about 0.43 µM; inactive means the rest
Outcomes: active, inactive

compound	assigned-class
COc1cc2c3c(n(C)c(=O)c2cc1OC)-c1cc2c(cc1/C3=C\CCCCCN)OCO2	inactive
O=C(Oc1ccc(Cl)cc1Cl)c1ccccc1Nc1ccnc(C(F)(F)F)c1	inactive
CCN(CC)CCOc1nc2ccc(OC)cc2c2c1-c1ccc(OC)cc1C2=O	inactive
N=C1C(c2nc(-c3ccc(Br)cc3)cs2)=C(O)CN1Cc1cccnc1	inactive
COc1cc(C2CC(c3ccc(C)cc3)=NN2C=O)ccc1Oc1ccnc2cc(Cl)ccc12 (centres undefined)	inactive
Cc1ccc(CNc2c3ccccc3nc3ccccc23)cc1	inactive
CCC[CH2][Sn-]([CH2]CCC)([CH2]CCC)[O]c1cc(Cl)c(Cl)cc1Cl	active
C[C@@H]1C[C@@H](O)[C@]2(O)O[C@@H]3C[C@@]4(C=O)[C@@H](CC[C@@H]5[C@@H]4CC[C@]4(C)[C@@H](C6=CC(=O)OC6)CC[C@]54O)C[C@H]3O[C@@H]2O1	active
CC(=O)O[C@H]1CC[C@@]2(C)C(=CC[C@@H]3[C@@H]2CC[C@]2(C)C(c4cccnc4)=CC[C@@H]32)C1	inactive
